Biological target: GST-KIAA1634 PDZ domain 1 (Homo sapiens (Human)), Q5TCQ9
Sequence (Q5TCQ9 401-502): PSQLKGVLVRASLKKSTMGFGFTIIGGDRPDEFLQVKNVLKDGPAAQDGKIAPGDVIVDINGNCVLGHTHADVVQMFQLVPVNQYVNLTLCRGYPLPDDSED
Experiment: G assay titration, PDZ 0.3 ug/ml
OUTCOME_MEASURE: pKd
Scale: pKd equals -log10([C]), with [C] in mol/L.

Q) Any idea what pKd was measured for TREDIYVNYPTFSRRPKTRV (modifications not checked) [DNAM-1] ?
A) 6.00
